# System: Sporothrix schenkii
# Assay Protocol: Antifungal activity in vitro, resazurin growth inhibition: Sporothrix schenkii (B62482)
# Type: cell-based
Classification field: 1 (yes) = Inf. A: Sporothrix schenkii B62482, pIC50 at or over 5; 0 (no) = Inf. A: Sporothrix schenkii B62482, pIC50 under 5.

Molecule	Assigned Category
CCc1nc(C2=NCc3c(Cl)cc(Cl)cc3-n3cccc32)cs1	0 (no)

Exercise: Threshold query (Inf. A: Sporothrix schenkii B62482, pIC50 >= 5) on Cc1cccc2c1CNC(c1cc3ccccc3o1)c1cccn1-2.Cl (racemic)
Solution: 0 (no)

Exercise: Threshold query (Inf. A: Sporothrix schenkii B62482, pIC50 >= 5) on "Fc1cc(Cl)c2c(c1)-n1cccc1C(c1ccc(Cl)nc1)=NC2"
Solution: 0 (no)

Exercise: Threshold query (Inf. A: Sporothrix schenkii B62482, pIC50 >= 5) on "Clc1ccc(C2=NCc3c(Cl)cccc3-n3cccc32)cn1"
Solution: 0 (no)

----------
We begin with a simple list: items and their reported IC50.
# System: Candida parapsilosis
# Assay Protocol: Antifungal activity in vitro, resazurin growth inhibition: Candida parapsilosis (B66126)
# Assay type: cell-based
# Experimental Context: Lodderomyces parapsilosis, read-out: Inf. D: Candida parapsilosis B66126, pIC50 (converted)
Please state the figure in µM; there is no need to write the unit.

Compound	Value Reported
Clc1cccc2c1CN=C(c1ccc3sccc3c1)c1cccn1-2	0.603

Let's switch to this compound now.
Record summary for Cc1cccc2c1CNC(c1cc3ccccc3s1)c1cccn1-2.Cl (centres unmarked) : reported IC50 = 45.7

----------
We begin with a simple list: items and their reported Inf. H: Scedosporium apiospermum IHEM3817, pIC50.
# System: Scedosporium apiospermum
# Assay Protocol: Antifungal activity in vitro, resazurin growth inhibition: Scedosporium apiospermum (IHEM3817)
# Type: cell-based
Lab note: record just the number, no unit beside it.

Examples with their reported Inf. H: Scedosporium apiospermum IHEM3817, pIC50 follow.
Smiles Text	Value Reported
CC(F)(F)c1ccc(C2=NCc3c(Cl)cc(F)cc3-n3cccc32)cn1	5.44
c1ccc2c(c1)CN=C(c1cc3ccccc3s1)c1cccn1-2	5.63
CCc1ccc(C2=NCc3c(Cl)cc(Cl)cc3-n3cccc32)cn1	5.07
Clc1cccc2c1CN=C(c1ccc3ccsc3c1)c1cccn1-2	5.15

Record summary for "Clc1ccc2c(c1)-n1cccc1C(c1ccc3sccc3c1)=NC2" : reported Inf. H: Scedosporium apiospermum IHEM3817, pIC50 = 5.08

----------
# Tested on: Trichophyton rubrum
# Assay Protocol: Antifungal activity in vitro, resazurin growth inhibition: Trichophyton rubrum (B68183)
# Type: cell-based
Classification field: Y = Inf. C: Trichophyton rubrum B68183, pIC50 at or over 6; N = Inf. C: Trichophyton rubrum B68183, pIC50 under 6.

Compound	Assigned Category
Clc1cccc2c1-n1cccc1C(c1ccc3scc(Cl)c3c1)=NC2	N
FC(F)(F)c1ccc(C2=NCc3ccccc3-n3cccc32)cn1	Y
Fc1cccc2c1CN=C(c1cnc(Cl)c(Cl)c1)c1cccn1-2	N
COc1ccc2oc(C3NCc4c(Cl)cccc4-n4cccc43)cc2c1.Cl (racemic)	N
CC(F)(F)c1ccc(C2=NCc3c(Cl)cccc3-n3cccc32)cn1	Y

Exercise: Threshold query (Inf. C: Trichophyton rubrum B68183, pIC50 >= 6) on "Cc1cccc2cc(C3=NCc4ccccc4-n4cccc43)oc12"
Solution: Y

Exercise: Threshold query (Inf. C: Trichophyton rubrum B68183, pIC50 >= 6) on "Clc1cc2oc(C3=NCc4c(Cl)cccc4-n4cccc43)cc2cn1"
Solution: Y

Exercise: Threshold query (Inf. C: Trichophyton rubrum B68183, pIC50 >= 6) on "Clc1cccc2c1-n1cccc1C(c1ccc3ncsc3c1)=NC2"
Solution: Y
